This listing pairs sequences with measured PBM binding z-score.
Test system: RARb:RXRa (NR concentration 270 nM, RXRa partner concentration 90 nM)
Method Description: PBM binding z-score (relative to random genomic background probes); higher = stronger binding; sequences stand for … in GC…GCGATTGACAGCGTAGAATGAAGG

Polymer Sequence | PBM binding z-score
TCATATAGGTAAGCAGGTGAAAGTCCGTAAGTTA | 0.318
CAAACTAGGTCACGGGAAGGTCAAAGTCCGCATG | 5.43
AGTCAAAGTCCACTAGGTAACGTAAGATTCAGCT | 1.44
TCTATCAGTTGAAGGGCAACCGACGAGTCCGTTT | 1.63
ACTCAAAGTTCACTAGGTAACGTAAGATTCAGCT | 4.95
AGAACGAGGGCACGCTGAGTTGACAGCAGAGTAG | 2.57
